Biological target: UniProt:Q9BXA5
Sequence (Q9BXA5 whole entry): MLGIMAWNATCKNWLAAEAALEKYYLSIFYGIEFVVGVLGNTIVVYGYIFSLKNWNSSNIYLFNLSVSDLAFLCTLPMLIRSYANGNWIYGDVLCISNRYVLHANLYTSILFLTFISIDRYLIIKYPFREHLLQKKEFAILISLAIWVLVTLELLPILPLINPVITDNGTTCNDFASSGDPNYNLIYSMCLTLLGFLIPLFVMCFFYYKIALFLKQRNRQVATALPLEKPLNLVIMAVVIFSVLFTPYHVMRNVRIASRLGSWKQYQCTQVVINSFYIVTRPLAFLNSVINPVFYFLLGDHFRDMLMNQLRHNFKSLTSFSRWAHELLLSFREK
Experiment: Antagonist activity at human GPR91 receptor expressed in CHO-K1 cells co-expressing Galpha and Gqi5 G-protein assessed as inhibition of succinate-induced increase in intracellular calcium level by FLIPR assay
Measurement Name: pIC50
To interpret pIC50, take it as minus log10 of a concentration measured in moles per litre.

Qu. Kindly state the measured pIC50 obtained for `Clc1cccc(-c2ccc(-c3nnc(CCCc4ccc5cccnc5n4)s3)cc2)c1` with UniProt:Q9BXA5.
Ans. 5.52

Qu. Kindly state the measured pIC50 obtained for `O=C(CCCc1ccc2cccnc2n1)NCc1ccc(-c2cccc(Cl)c2)cc1` with UniProt:Q9BXA5.
Ans. 7.40

Qu. Kindly state the measured pIC50 obtained for `FC(F)(F)c1cc(-c2nnc(CCCCc3ccc4cccnc4n3)o2)ccc1Cl` with UniProt:Q9BXA5.
Ans. 6.80

Qu. Kindly state the measured pIC50 obtained for `COc1cccc(-c2ccc(CNC(=O)CCCc3ccc4cccnc4n3)cc2)c1` with UniProt:Q9BXA5.
Ans. 6.00

Qu. Kindly state the measured pIC50 obtained for `FC(F)(F)c1ccc(-c2nnc(CCCCc3ccc4cccnc4n3)o2)cc1` with UniProt:Q9BXA5.
Ans. 5.52

Qu. Kindly state the measured pIC50 obtained for `Clc1cccc(-c2ccc(-c3nnc(CCCc4ccc5cccnc5n4)o3)cc2)c1` with UniProt:Q9BXA5.
Ans. 7.40

Qu. Kindly state the measured pIC50 obtained for `O=C(CCCc1ccc2cccnc2n1)NCc1ncc(-c2ccc(F)c(C(F)(F)F)c2)cn1` with UniProt:Q9BXA5.
Ans. 6.70

Qu. Kindly state the measured pIC50 obtained for NC(C(=O)NCc1ccc(-c2ccc(F)c(C(F)(F)F)c2)cc1)c1ccc(-c2ccc3cccnc3n2)cc1 (stereo not given) with UniProt:Q9BXA5.
Ans. 6.48

Qu. Kindly state the measured pIC50 obtained for `O=C(CCCc1ccc2cccnc2n1)NCc1nc(-c2cccc(Cl)c2)cs1` with UniProt:Q9BXA5.
Ans. 6.52

Qu. Kindly state the measured pIC50 obtained for `C[C@H](NC(=O)Cc1ccc(-c2ccc3cccnc3n2)cc1)c1ccc(-c2ccc(F)c(C(F)(F)F)c2)cc1` with UniProt:Q9BXA5.
Ans. 8.15

Qu. Kindly state the measured pIC50 obtained for `Cc1cc(-c2ccc(CNC(=O)CCCc3ccc4cccnc4n3)cc2)ccc1Cl` with UniProt:Q9BXA5.
Ans. 6.52

Qu. Kindly state the measured pIC50 obtained for `C[C@H](NC(=O)CCCc1ccc2cccnc2n1)c1ccc(-c2cccc(Cl)c2)cc1` with UniProt:Q9BXA5.
Ans. 7.96

Qu. Kindly state the measured pIC50 obtained for `O=C(CCCc1ccc2cccnc2n1)NCc1ccc(-c2ccc(F)c(C(F)(F)F)c2)nn1` with UniProt:Q9BXA5.
Ans. 6.14

Qu. Kindly state the measured pIC50 obtained for `O=C(CCCc1ccc2cccnc2n1)NCc1ccc(-c2cccc(OC(F)(F)F)c2)cc1` with UniProt:Q9BXA5.
Ans. 6.30

Qu. Kindly state the measured pIC50 obtained for `O=C(CCCc1ccc2cccnc2n1)NCc1ccc(-c2cccc(C(F)(F)F)c2)cc1F` with UniProt:Q9BXA5.
Ans. 7.39

Qu. Kindly state the measured pIC50 obtained for `FC(F)(F)c1ccc(-c2nnc(CCCCc3ccc4cccnc4n3)o2)cc1C(F)(F)F` with UniProt:Q9BXA5.
Ans. 6.77

Qu. Kindly state the measured pIC50 obtained for `O=C(CCCc1ccc2cccnc2n1)NCc1ccc(-c2ccc(F)c(C(F)(F)F)c2)cc1` with UniProt:Q9BXA5.
Ans. 7.66

Qu. Kindly state the measured pIC50 obtained for `O=C(CCCc1ccc2cccnc2n1)NCc1ccc(-c2ccc(F)c(Cl)c2)cc1` with UniProt:Q9BXA5.
Ans. 7.42

Qu. Kindly state the measured pIC50 obtained for `FC(F)(F)Oc1ccc(-c2nnc(CCCCc3ccc4cccnc4n3)o2)cc1Cl` with UniProt:Q9BXA5.
Ans. 6.74

Qu. Kindly state the measured pIC50 obtained for `O=C(CCCc1ccc2cccnc2n1)NCc1csc(-c2cccc(Cl)c2)n1` with UniProt:Q9BXA5.
Ans. 6.15
